# measurement-notes: in vivo
# Set-up: species or system rat
# test-parameters: rat, tumor, iv; 3 h; read-out: Tumor uptake
endpoint-label: tissue uptake at 3 h
Report the figure along with its unit, number first.

I would be grateful if you could share the reported tissue uptake at 3 h for `CCN(CC)CCOc1ccc(/C(=C(/CCC[131I])c2ccccc2)c2ccccc2)cc1` .
0.23 %ID/g

----------
# measurement-notes: in vivo
# Set-up: species or system rat
# test-parameters: rat, kidney, iv; 30 min; read-out: Kidney uptake
endpoint-label: tissue uptake at 0.5 h (%ID/g)
All answers are understood in %ID/g, so give the number only.

I would be grateful if you could share the reported tissue uptake at 0.5 h for CCN(CC)CCOc1ccc(/C(=C(/CCC[18F])c2ccccc2)c2ccccc2)cc1 [[^18 F]FTX] .
1.71

This collection of values is drawn from patent US6096874A.
